Exercise: for every item that follows, state its recorded AUC(0-t).
experiment: Pharmacokinetic study in rats after oral administration of PM extract (HPLC-QQQ-MS of plasma); type: in vivo, Sprague–Dawley (SD) rats; details: male, Sprague-Dawley; rat plasma, oral PM 18 g/kg, n = 6
Give bare numbers, in ng·h/mL.

Worked examples, 3 compounds total:
Data request, read-out AUC(0-t), for OCC1OC(Oc2c(O)cc(O)cc2C=Cc2ccc(O)cc2)C(O)C(O)C1O (stereo not shown) [TSG]
758

Please give the result for Cc1cc(O)c2c(c1)C(=O)c1cc(O)cc(O)c1C2=O [EM, emodin] too.
1020

Please do the same for O=C1c2cccc(O)c2C(=O)c2c(O)cc(CO)cc21 [AE, aloe-emodin] as well.
64.5

Shift focus to the following entry.
Which AUC(0-t) value is on record for COc1cc(O)c2c(c1)C(=O)c1cc(C)cc(OC3OC(CO)C(O)C(O)C3O)c1C2=O [PG, physcion-8-O-β-D-glucoside] ?
146

* * *

Test: Pharmacokinetic study in rats after oral administration of PM extract (HPLC-QQQ-MS of plasma)
Assay type: in vivo, Sprague–Dawley (SD) rats
Conditions: male, Sprague-Dawley; rat plasma, oral PM 18 g/kg, n = 6; read-out: Tmax
Protocol: Adult male Sprague–Dawley (SD) rats weighing between 180 g and 220 g were purchased from Beijing Vital River Laboratory Animal Technology Co., Ltd. (Beijing, China). […] The assay was performed with an Agilent 1260 high-performance liquid chromatography system combined with Agilent 6470 QQQ MS (Agilent Technologies, CA, USA). Applied Masshunter Qualitative Analysis software (version B.07.00) and Quantitative Analysis software (version 07.00) were used for data acquisition and quantification. […]
value.type: Tmax (min)
Numbers only, in min.

Entry OCC1OC(Oc2c(O)cc(O)cc2C=Cc2ccc(O)cc2)C(O)C(O)C1O (centres unmarked) : reported Tmax = ?
15

Others:
Fill blank: measured Tmax of the compound COc1cc(O)c2c(c1)C(=O)c1cc(C)cc(OC3OC(CO)C(O)C(O)C3O)c1C2=O [PG, physcion-8-O-β-D-glucoside] is ____.
15

* * *

test: Stability of analytes in rat plasma (QC samples, storage and freeze–thaw); assay type: in vitro ADME; details: rat plasma, MQC: spiked 200 ng/mL (EG 50.0 ng/mL), −80 °C to 25 °C, n = 6
value.type: Stability Re (%), Three Freeze–Thaw Cycles
Give bare numbers, in %.

Endpoint output: Stability Re (%), Three Freeze–Thaw Cycles of COc1cc(O)c2c(c1)C(=O)c1cc(C)cc(OC3OC(CO)C(O)C(O)C3O)c1C2=O [PG, physcion-8-O-β-D-glucoside] . Value?
94.08

One more compound: `Cc1cc(O)c2c(c1)C(=O)c1cc(O)cc(O)c1C2=O`
98.71

// for each compound below, give its Stability Re (%), Three Freeze–Thaw Cycles
1. OCC1OC(Oc2c(O)cc(O)cc2C=Cc2ccc(O)cc2)C(O)C(O)C1O (stereo not shown)
2. O=C1c2cccc(O)c2C(=O)c2c(O)cc(CO)cc21

1: 95.27; 2: 91.44

* * *

assay: Stability of analytes in rat plasma (QC samples, storage and freeze–thaw); type: in vitro ADME; conditions: rat plasma, HQC: spiked 640 ng/mL (EG 160 ng/mL), −80 °C to 25 °C, n = 6
Kindly supply the reported Stability Re (%), Three Freeze–Thaw Cycles values for the records listed here.
One number for each entry, in %.

Which measured Stability Re (%), Three Freeze–Thaw Cycles value corresponds to OCC1OC(Oc2c(O)cc(O)cc2C=Cc2ccc(O)cc2)C(O)C(O)C1O (stereo not shown) ?
99.01

Same thing, different compound: COc1cc(O)c2c(c1)C(=O)c1cc(C)cc(OC3OC(CO)C(O)C(O)C3O)c1C2=O [PG, physcion-8-O-β-D-glucoside]
98.03

Queued: `O=C1c2cccc(O)c2C(=O)c2c(O)cc(CO)cc21`
96.94

Attention now turns to another entry.
Data request, read-out Stability Re (%), Three Freeze–Thaw Cycles, for `Cc1cc(O)c2c(c1)C(=O)c1cc(O)cc(O)c1C2=O`
99.10

* * *

experiment: Stability of analytes in rat plasma (QC samples, storage and freeze–thaw); assay type: in vitro ADME; conditions: rat plasma, MQC: spiked 200 ng/mL (EG 50.0 ng/mL), n = 6
Kindly state Stability Re (%), −80 °C, 10 Days for each of the entries shown.
Give your result as the value with the unit written after it.

Sample records with Stability Re (%), −80 °C, 10 Days:
Find the recorded Stability Re (%), −80 °C, 10 Days belonging to `O=C1c2cccc(O)c2C(=O)c2c(O)cc(CO)cc21` and report it.
89.62%

Follow-up item: OCC1OC(Oc2c(O)cc(O)cc2C=Cc2ccc(O)cc2)C(O)C(O)C1O (stereo not shown)
95.95%

For each of the compounds below, state Stability Re (%), −80 °C, 10 Days.
1. Cc1cc(O)c2c(c1)C(=O)c1cc(O)cc(O)c1C2=O
2. COc1cc(O)c2c(c1)C(=O)c1cc(C)cc(OC3OC(CO)C(O)C(O)C3O)c1C2=O [PG, physcion-8-O-β-D-glucoside]

["99.40%", "94.69%"]

* * *

experiment: Pharmacokinetic study in rats after oral administration of PM extract (HPLC-QQQ-MS of plasma); type: in vivo, Sprague–Dawley (SD) rats; conditions: male, Sprague-Dawley; rat plasma, oral PM 18 g/kg, n = 6; read-out: MRT0–t
value.type: MRT last (h)
One number for each entry, in h.

Item COc1cc(O)c2c(c1)C(=O)c1cc(C)cc(OC3OC(CO)C(O)C(O)C3O)c1C2=O [PG, physcion-8-O-β-D-glucoside] has what recorded MRT last?
8.41

One more compound: Cc1cc(O)c2c(c1)C(=O)c1cc(O)cc(O)c1C2=O [EM, emodin]
6.82

Please report MRT last for every entry that follows.
1. O=C1c2cccc(O)c2C(=O)c2c(O)cc(CO)cc21 [AE, aloe-emodin]
2. OCC1OC(Oc2c(O)cc(O)cc2C=Cc2ccc(O)cc2)C(O)C(O)C1O (stereo not shown) [TSG]

6.5
1.22

* * *

assay: Stability of analytes in rat plasma (QC samples, storage and freeze–thaw); type: in vitro ADME; details: rat plasma, LQC: spiked 10.0 ng/mL (EG 2.50 ng/mL), n = 6
So I've got a bunch of compounds here, and I need their Stability Re (%), −80 °C, 10 Days values.
One number for each entry, in %.

Solved entries:
Bench note: what Stability Re (%), −80 °C, 10 Days did COc1cc(O)c2c(c1)C(=O)c1cc(C)cc(OC3OC(CO)C(O)C(O)C3O)c1C2=O [PG, physcion-8-O-β-D-glucoside] show?
90.14

For `Cc1cc(O)c2c(c1)C(=O)c1cc(O)cc(O)c1C2=O` then?
97.48

Cool, now `O=C1c2cccc(O)c2C(=O)c2c(O)cc(CO)cc21`
90.27

More entries:
What value of Stability Re (%), −80 °C, 10 Days has been reported for the following compound? OCC1OC(Oc2c(O)cc(O)cc2C=Cc2ccc(O)cc2)C(O)C(O)C1O (stereo not shown)
97.92

* * *

assay: Stability of analytes in rat plasma (QC samples, storage and freeze–thaw); format: in vitro ADME; conditions: rat plasma, LQC: spiked 10.0 ng/mL (EG 2.50 ng/mL), −80 °C to 25 °C, n = 6
value.type: Stability Re (%), Three Freeze–Thaw Cycles
# include the unit after the value

Please review the entries below; each comes with its answer.
Quick one: Stability Re (%), Three Freeze–Thaw Cycles of O=C1c2cccc(O)c2C(=O)c2c(O)cc(CO)cc21 [AE, aloe-emodin] ?
90.50%

Cool, now COc1cc(O)c2c(c1)C(=O)c1cc(C)cc(OC3OC(CO)C(O)C(O)C3O)c1C2=O [PG, physcion-8-O-β-D-glucoside]
88.21%

Proceed to OCC1OC(Oc2c(O)cc(O)cc2C=Cc2ccc(O)cc2)C(O)C(O)C1O (stereo not shown) [TSG]
91.38%

Further cases:
Which measured Stability Re (%), Three Freeze–Thaw Cycles value corresponds to Cc1cc(O)c2c(c1)C(=O)c1cc(O)cc(O)c1C2=O [EM, emodin] ?
96.37%

* * *

For each record, write down the corresponding CLz/F.
assay: Pharmacokinetic study in rats after oral administration of PM extract (HPLC-QQQ-MS of plasma); type: in vivo, Sprague–Dawley (SD) rats; conditions: rat plasma, oral PM 18 g/kg, n = 6
One number for each entry, in mL/min/kg.

Some solved cases for reference:
Would you kindly share the measured CLz/F for `Cc1cc(O)c2c(c1)C(=O)c1cc(O)cc(O)c1C2=O` ?
171

Then this compound: COc1cc(O)c2c(c1)C(=O)c1cc(C)cc(OC3OC(CO)C(O)C(O)C3O)c1C2=O [PG, physcion-8-O-β-D-glucoside]
290

Now give it for OCC1OC(Oc2c(O)cc(O)cc2C=Cc2ccc(O)cc2)C(O)C(O)C1O (stereo not shown) too.
10300

Consider the record given below.
Param item = `O=C1c2cccc(O)c2C(=O)c2c(O)cc(CO)cc21` ; retrieve measured CLz/F.
756
